Value source: patent US9102619B2

Could you please report measured HPDE4/LPDE4 for the items listed next?
# System: LPDE4
# Protocol Text: Inhibition of low affinity LPDE4 (cAMP disappearance)
# Type: biochemical
# Experimental Conditions: ratio of IC50 values
One number for each entry.

Some compounds with recorded HPDE4/LPDE4:
| Compound | HPDE4/LPDE4 |
| --- | --- |
| COc1ccc(C(O)Cc2c(Cl)c[n+]([O-])cc2Cl)cc1OC1CCCC1 (stereo not shown) | 394 |
| O=C(OC(Cc1c(Cl)cncc1Cl)c1ccc(OC(F)F)c(OCC2CC2)c1)c1ccc(OC(F)F)c(OCC2CC2)c1 (stereo not shown) | 1319 |
| COc1ccc(C(Cc2c(Cl)cncc2Cl)OC(=O)C(C)c2ccc(CC(C)C)cc2)cc1OC1CCCC1 (stereo not shown) | 541 |

Query compound follows.
Fill in the blank: the reported HPDE4/LPDE4 of CC(C)Cc1ccc(C(C)C(=O)OC(Cc2c(Cl)c[n+]([O-])cc2Cl)c2ccc(OC(F)F)c(OCC3CC3)c2)cc1 (stereo not shown) is ____.
273

* * *

# Test system: LPDE4
# Construct: LPDE4 IC50
# Protocol Text: Inhibition of low affinity LPDE4 (cAMP disappearance)
# Assay type: biochemical
# Experimental Conditions: 50% inhibition of cAMP disappearance
So I've got a bunch of compounds here, and I need their IC50 values.
Answers are plain numbers, in pM.

Here's what some known entries look like.
| Compound | Target Of Assay | IC50, pM |
| --- | --- | --- |
| O=C(OC(Cc1c(Cl)cncc1Cl)c1ccc(OC(F)F)c(OCC2CC2)c1)c1ccc(OC(F)F)c(OCC2CC2)c1 (stereo not shown) | LPDE4 | 116 |
| CC(C)Cc1ccc(C(C)C(=O)OC(Cc2c(Cl)c[n+]([O-])cc2Cl)c2ccc(OC(F)F)c(OCC3CC3)c2)cc1 (stereo not shown) | LPDE4 | 169 |
| COc1ccc(C(O)Cc2c(Cl)c[n+]([O-])cc2Cl)cc1OC1CCCC1 (stereo not shown) | LPDE4 | 759 |

As a next step, examine the compound that follows.
Value wanted: IC50 (LPDE4) of entry COc1ccc(C(Cc2c(Cl)cncc2Cl)OC(=O)C(C)c2ccc(CC(C)C)cc2)cc1OC1CCCC1 (stereo not shown)
738

* * *

# Test system: LPS-induced TNF-α release in peripheral blood mononuclear cells (PBMCs)
# Protocol Text: PDE4 inhibitory activity in the PBMCs assay (LPS-induced TNF-α release)
# Format: cell-based
# Experimental Conditions: human PBMCs, LPS 3 ng/ml, 18 hours, TNF-α by ELISA
Readout Name: IC50 (nM)
Numbers only, in nM.

Tell me reported IC50 for CC(C)Cc1ccc(C(C)C(=O)OC(Cc2c(Cl)c[n+]([O-])cc2Cl)c2ccc(OC(F)F)c(OCC3CC3)c2)cc1 (stereo not shown) [Compound 15] , tested with LPS-induced TNF-α release in peripheral blood mononuclear cells (PBMCs).
15
